TEST_SUMMARY: Mouse blood levels
Type: in vivo, male albino mice, CS1 strain
PARTICULARS: blood, sc, 5 minutes after dosing, 50 mg/kg subcutaneous, mean of 5 experiments, assay Neisseria catarrhalis, read-out: Concentration (blood level)
OUTCOME_MEASURE: concentration at 5 min (µg/mL)
Give bare numbers, in µg/mL.

>>> recorded_measurement("CCOC(=O)CCCCCNC(=O)C=C(C)CC1OCC(CC2OC2C(C)C(C)O)C(O)C1O (centres unmarked)")
22.1

Give its concentration at 5 min value. Item: C/C(=C\C(=O)OCCCCCCCCC(=O)O)C[C@@H]1OC[C@H](C[C@@H]2O[C@H]2[C@@H](C)[C@H](C)O)[C@@H](O)[C@H]1O [Pseudomonic Acid, reference compound]
8.2
